# target: ADH (Polaromonas sp.) (Polaromonas sp.)
# Sequence (Q126F5 whole entry): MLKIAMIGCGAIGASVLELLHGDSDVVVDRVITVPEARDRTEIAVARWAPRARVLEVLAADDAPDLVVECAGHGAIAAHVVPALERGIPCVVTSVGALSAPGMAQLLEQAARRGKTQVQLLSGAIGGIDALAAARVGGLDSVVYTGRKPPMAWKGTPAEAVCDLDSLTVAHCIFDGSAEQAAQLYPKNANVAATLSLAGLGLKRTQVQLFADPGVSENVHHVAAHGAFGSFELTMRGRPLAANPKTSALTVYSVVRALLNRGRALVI
# assay_method_text: Screening of substrate specificity, ADH
# particulars: relative to oxaloacetate; 20 mM substrate, […] NADH, pH 9
reported_endpoint: Amination activity, ADH

# compound, Amination activity, ADH
records = [
    ("CC(=O)C(=O)O [pyruvate]", "na (no activity (<0.2%))"),
    ("CC(C)C(=O)C(=O)O [ketoisovaleriate]", "na (no activity (<0.2%))"),
    ("O=C(O)CC(=O)C(=O)O [Oxaloacetate]", "100 ± 3%"),
    ("CCC(=O)C(=O)O [α-ketobutyrate]", "na (no activity (<0.2%))"),
]

compound CCC(C)C(=O)C(=O)O (centres unmarked) [ketomethylvaleriate] , Amination activity, ADH observed: na (no activity (<0.2%))
